Read-out: Urokinase-type plasminogen activator receptor (uPAR), PLAUR (gene 5329)
Test: BSK_CASM3C_uPAR: BioMAP Diversity Plus: CASM3C Assay for Urokinase-type plasminogen activator receptor (uPAR) Biomarker Activity (AID 2283054);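 note: cell-surface uPAR protein level quantified by ELISA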
Conditions: primary human coronary artery smooth muscle cells; actives raise or lower the signal
Calls of active or inactive are those of the source. Rule for the calls: active = hit-call score of the fitted dose curve at least 0.9, where 1 is the maximum; inactive = score below 0.9.
Quantity measured: AC50

> print(dat)
                                    compound                       value.measured
 1  N#CC(CCc1ccc(Cl)cc1)(Cn1cncn1)c1ccccc1 (centres undefined)                             inactive
 2  CCCC1COC(Cn2cncn2)(c2ccc(Cl)cc2Cl)O1 (centres undefined)                             inactive
 3  CC(C)C1(C)N=C(c2nc3ccccc3cc2C(=O)O)NC1=O (centres undefined)                             inactive
 4  CC(C)Oc1cc(-n2nc(C(C)(C)C)oc2=O)c(Cl)cc1Cl                             inactive
 5  CC1COC(Cn2cncn2)(c2ccc(Oc3ccc(Cl)cc3)cc2Cl)O1 (centres undefined)                             inactive
 6              CCCCOC(=O)c1ccccc1C(=O)OCCCC                             inactive
 7  CC(Oc1ccc(Cl)cc1Cl)C(=O)O (centres undefined)                             inactive
 8                        Oc1ccccc1-c1ccccc1                             inactive
 9                                  CNC(=S)S                             inactive
10  CCCN(CCC)c1c([N+](=O)[O-])cc(S(N)(=O)=O)cc1[N+](=O)[O-]  34.5 µM (active) [middle of 4 runs]
11         CCCCNC(=O)n1c(NC(=O)OC)nc2ccccc21                             inactive
12  CCOc1cc(Oc2ccc(C(F)(F)F)cc2Cl)ccc1[N+](=O)[O-]                             inactive
13        Fc1ccc(Oc2ccnc3cc(Cl)cc(Cl)c23)cc1                             inactive
14    COc1ccc(C(c2ccc(OC)cc2)C(Cl)(Cl)Cl)cc1                             inactive
15  C#CCOS(=O)OC1CCCCC1Oc1ccc(C(C)(C)C)cc1 (centres undefined)                     11.2 µM (active)
16  CCOC(=O)C(Cl)Cc1cc(-n2nc(C)n(C(F)F)c2=O)c(F)cc1Cl (centres undefined)                             inactive
17                CC1=C(C(=O)Nc2ccccc2)SCCO1                             inactive
18  Cc1c(F)c(F)c(COC(=O)C2C(/C=C(\Cl)C(F)(F)F)C2(C)C)c(F)c1F (centres undefined)                             inactive
19                    N#Cc1cc(Br)c(O)c(Br)c1                    0.405 µM (active)
20  COC(=O)C(C)Oc1ccc(Oc2ccc(Cl)cc2Cl)cc1 (centres undefined)                             inactive
21  CCc1nn(C)c(C(=O)NCc2ccc(C(C)(C)C)cc2)c1Cl                             inactive
22                COc1nc(NC(C)C)nc(NC(C)C)n1                             inactive
23                      CCNc1nc(Cl)nc(NCC)n1                             inactive
24  COc1nc(C)nc(NC(=O)NS(=O)(=O)c2ccccc2CCC(F)(F)F)n1                             inactive

* * *

Read-out: ABC Transporter (ABCB1), ABCB1 (gene 5243)
Test: LTEA_HepaRG_ABCB1: Life Technologies and Expression Analysis (LTEA) Assay for ABC Transporter (ABCB1) using HepaRG (AID 2283460)
Conditions: mRNA level, 48 h; actives raise or lower the signal
Active and inactive are the calls of the source. Rule for the calls: active = hit-call score of the fitted dose curve at least 0.9, where 1 is the maximum; inactive = score below 0.9.
Possible outcomes: 1 (active), 0 (inactive)

> print(dat)
                                   compound  assigned.class
1  COc1cnc(OC)n2nc(NS(=O)(=O)c3c(OCC(F)F)cccc3C(F)(F)F)nc12               1
2  N#Cc1nn(-c2c(Cl)cc(C(F)(F)F)cc2Cl)c(N)c1S(=O)C(F)(F)F (centres undefined)               1
3                      CNC(=O)ON=CC(C)(C)SC               0
4  CCc1nn(C)c(C(=O)NCc2ccc(C(C)(C)C)cc2)c1Cl               0

* * *

Test: CCTE_Shafer_MEA_dev_mutual_information_norm: CCTE's Neural Network Formation Assay for Mutual Information Normalization, Shafer Lab (AID 2284091)
Activity calls are given as the source filed them. How the source made its calls: active means hit-call score of the fitted dose curve at least 0.9, where 1 is the maximum; inactive means score below 0.9.
Possible outcomes: active, inactive

> print(dat)
                                    molecule  assigned.class
 1                    CN(C)C(=S)SSC(=S)N(C)C          active
 2                   CCNc1nc(Cl)nc(NC(C)C)n1        inactive
 3         COP(N)(=O)SC (stereo unspecified)        inactive
 4            COP(=S)(OC)Oc1nc(Cl)c(Cl)cc1Cl        inactive
 5  Cc1c(F)c(F)c(COC(=O)C2C(/C=C(\Cl)C(F)(F)F)C2(C)C)c(F)c1F (stereo unspecified)          active
 6  N#Cc1nn(-c2c(Cl)cc(C(F)(F)F)cc2Cl)c(N)c1S(=O)C(F)(F)F (stereo unspecified)        inactive
 7  Cc1ccc(-c2c(Cl)nc(C#N)n2S(=O)(=O)N(C)C)cc1          active
 8              CCCCOC(=O)c1ccccc1C(=O)OCCCC        inactive
 9  C=CCC1=C(C)[C@@H](OC(=O)[C@@H]2[C@@H](C=C(C)C)C2(C)C)CC1=O          active
10    COc1ccc(C(c2ccc(OC)cc2)C(Cl)(Cl)Cl)cc1          active
11                      CNC(=O)ON=CC(C)(C)SC        inactive

* * *

Read-out: Urokinase-type plasminogen activator receptor (uPAR), PLAUR (gene 5329)
Experiment: BSK_BE3C_uPAR: BioMAP Diversity Plus: BE3C Assay for Urokinase-type plasminogen activator receptor (uPAR) Biomarker Activity (AID 2283039);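 note: uPAR protein level measured by ELISA on the cells; cells exposed to compound for one day before measurement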
Settings: primary human bronchial epithelial cells; actives raise or lower the signal
Active and inactive are the calls of the source. Rule for the calls: active = hit-call score of the fitted dose curve at least 0.9, where 1 is the maximum; inactive = score below 0.9.
Quantity measured: outcome

> print(dat)
                              smiles.record  value.measured
1  COc1nc(C)nc(NC(=O)NS(=O)(=O)c2ccccc2Cl)n1        inactive
2                      O=C(O)c1nc(Cl)ccc1Cl        inactive
3  CO/C=C(/C(=O)OC)c1ccccc1Oc1cc(Oc2ccccc2C#N)ncn1        inactive

* * *

Read-out: Human Leukocyte Antigen - DR isotype (HLADR), HLA-DRA (gene 3122)
Test: BSK_3C_HLADR: BioMAP Diversity Plus: 3C Assay for Human Leukocyte Antigen - DR isotype (HLADR) Biomarker Activity (AID 2283019)
Settings: primary human endothelial cells (HUVEC); actives raise or lower the signal
Procedure: BSK_3C is a cell-based, multiplexed-readout assay that uses umbilical vein endothelium, a human vascular primary cell, with measurements taken at 24 hours after chemical dosing in a 96-well plate.BSK_3C_HLADR is an assay component measured in the BSK_3C assay. It measures HLA-DR antibody related to regulation of gene expression using ELISA technology.Data from the assay component BSK_3C_HLADR was analyzed into 1 assay endpoint. […]
Calls of active or inactive are those of the source. Rule for the calls: active = hit-call score of the fitted dose curve at least 0.9, where 1 is the maximum; inactive = score below 0.9.
Possible outcomes: active, inactive

> print(dat)
                                    molecule  assigned.class
 1  C#CCOS(=O)OC1CCCCC1Oc1ccc(C(C)(C)C)cc1 (configuration not stated)          active
 2                COc1nc(NC(C)C)nc(NC(C)C)n1        inactive
 3                CC1=C(C(=O)Nc2ccccc2)SCCO1          active
 4  CC1COC(Cn2cncn2)(c2ccc(Oc3ccc(Cl)cc3)cc2Cl)O1 (configuration not stated)          active
 5  CC(C)Oc1cc(-n2nc(C(C)(C)C)oc2=O)c(Cl)cc1Cl          active
 6  Cc1ccc(-c2c(Cl)nc(C#N)n2S(=O)(=O)N(C)C)cc1          active
 7                     Cc1cc(Cl)ccc1OCC(=O)O        inactive
 8        Fc1ccc(Oc2ccnc3cc(Cl)cc(Cl)c23)cc1          active
 9  CCOC(=O)C(Cl)Cc1cc(-n2nc(C)n(C(F)F)c2=O)c(F)cc1Cl (configuration not stated)          active
10              CON(C)C(=O)Nc1ccc(Cl)c(Cl)c1        inactive
11  C=CC1(C)OC(=O)N(c2cc(Cl)cc(Cl)c2)C1=O (configuration not stated)        inactive
12               O=C(Nc1ccccc1)Nc1ccnc(Cl)c1          active
13                    COC(=O)c1ccccc1C(=O)OC        inactive
14   COP(N)(=O)SC (configuration not stated)        inactive
15                      CNC(=O)ON=CC(C)(C)SC        inactive
16  CC(C)(C)c1ccc(CSc2cnn(C(C)(C)C)c(=O)c2Cl)cc1          active
17  CCc1nn(C)c(C(=O)NCc2ccc(C(C)(C)C)cc2)c1Cl          active
18            COP(=S)(OC)Oc1nc(Cl)c(Cl)cc1Cl        inactive
19                O=C(O)COc1nc(Cl)c(Cl)cc1Cl        inactive
20                        Oc1ccccc1-c1ccccc1        inactive
21  CCCC1COC(Cn2cncn2)(c2ccc(Cl)cc2Cl)O1 (configuration not stated)        inactive
22  CCOc1cc(Oc2ccc(C(F)(F)F)cc2Cl)ccc1[N+](=O)[O-]          active
23  CCON=C(CC)C1=C(O)CC(c2c(C)cc(C)cc2C)CC1=O (configuration not stated)        inactive
24  CCOC(=O)CC(SP(=S)(OC)OC)C(=O)OCC (configuration not stated)          active
25  CC(Oc1ccc(Cl)cc1Cl)C(=O)O (configuration not stated)        inactive
26                      CCNc1nc(Cl)nc(NCC)n1        inactive
27  CS/C(C)=N/OC(=O)N(C)SN(C)C(=O)O/N=C(\C)SC          active
